assay: Metabolic stability in rat microsomes assessed as half life; format: ADME, Microsome
Known half-life of a selection of molecules
ASSAY METRIC: half-life

# GIVEN SMILES, READOUT VALUE
records = [
    ("O=C1Cc2cc(-c3ccnc4[nH]ccc34)ccc2CCN1c1ccccc1", "18 min"),
    ("CN1CCN(CCCOc2cccc(N3CCc4ccc(-c5ccnc6[nH]ccc56)cc4CC3=O)c2)CC1", "8.4 min"),
]

====

experiment: Kinetic solubility of the compound in PBS at pH 7.2; type: physicochemical; details: read-out: Kinetic_solubility

# GIVEN SMILES, LT GT EQ, solubility kinetic / µM
data = [
    ("O=C1Cc2cc(-c3ccnc4[nH]ccc34)ccc2CCN1c1ccccc1", "<", 5),
    ("O=C1CCc2ccc(-c3ccnc4[nH]ccc34)cc2CN1c1ccccc1", "=", 131),
]
